The origin of these recorded values is patent US10570117B2.

Assignment: determine reported log10(solubility at 24 h) for the given molecules.
- assay-remarks: Solubility in gastric juice or intestinal juice model fluid (precipitation method using DMSO)
- Format: physicochemical
- recorded-conditions: pH 6.8, kinetic from dmso stock, 2nd fluid for Disintegration Test of Japanese Pharmacopoeia (pH: 6.8), room temperature, read-out: Solubility (μg/mL) 2nd fluid
Could you please treat all values as log10 of solubility at 24 h in µg/mL?

COc1cc(OCc2cccc(C(F)(F)F)n2)ccc1-c1cnc(-c2ccc(F)nc2)[nH]1    -0.30

Give one value of log10(solubility at 24 h) per listed molecule.
1. COc1cc(-c2cnc(C3CCC(F)(F)CC3)[nH]2)ccc1OCc1ncc(C(F)(F)F)cc1F
2. COc1cc(OCc2ccc(C(F)(F)F)nc2)ccc1-c1[nH]c(C2CCC(F)(F)C2)nc1Cl (centres unmarked)
3. COCCn1c(-c2ccc(F)nc2)nc(Cl)c1-c1ccc(OCc2ccc(C(F)(F)F)cn2)cc1OC
4. Fc1ccc(-c2nc(Cl)c(-c3ccc(OCc4ncc(C(F)(F)F)cc4F)cc3F)[nH]2)cn1
5. COc1cc(OCc2coc(C)n2)ccc1-c1nc(-c2ccc(Cl)nc2)[nH]c1Cl

A:
[1.23, -0.40, 0.85, 0.26, 0.34]

Just so you know, measured log10(solubility at 24 h) for `COc1cc(OCc2ccc(C(F)(F)F)nc2)ccc1-c1nc(-c2ccc(Cl)cn2)[nH]c1C` came out at -0.30
